Biological target: Beta-1,3-glucan synthase (Candida albicans)
Test: In vitro inhibition of glucan synthase obtained from Candida albicans at a concentration of 10 ug/mL.
Numbered stars: 1 amine (or outer) side, 2 acyl side, 3 side chain; on linkers, the order of the positions; unused ones are H or OH. Bridge positions count the residues as written; N and C are the ends. Square brackets hold non-standard residues; d marks the D form. Peptide text beside a SMILES is read from it. * marks the point of attachment. pTerphenylCO(4''-OnC5H11) = CCCCCOc1ccc(-c2ccc(-c3ccc(C(=O)*)cc3)cc2)cc1; Orn(4R-OH,5R-OH) = O=C([C@H](C[C@@H](O)[C@@H](O)N[*:3])N[*:1])[*:2]; hTyr(3S-OH,4S-OH) = N[C@H](C(=O)O)[C@H](O)[C@@H](O)c1ccc(O)cc1; Benzoyl(4-(4-OctO-Ph)) = CCCCCCCCOc1ccc(-c2ccc(C(=O)*)cc2)cc1; Pro(3S-OH,4S-Me) = C[C@H]1CN[C@H](C(=O)O)[C@H]1O; Hyp = O=C(O)[C@@H]1C[C@@H](O)CN1
ENDPOINT: inhibition (%)
Quick reminder: number only, in %, skip the unit.

>  <COMPOUND>
CCCCCCCCOc1ccc(-c2ccc(C(=O)N[C@H]3C[C@@H](O)[C@@H](O)NC(=O)[C@@H]4[C@@H](O)[C@@H](C)CN4C(=O)[C@H]([C@@H](C)O)NC(=O)[C@H]([C@H](O)[C@@H](O)c4ccc(O)cc4)NC(=O)[C@@H]4C[C@@H](O)CN4C(=O)[C@H]([C@@H](C)O)NC3=O)cc2)cc1 ({Benzoyl(4-(4-OctO-Ph))}-[Orn(4R-OH,5R-OH)]T[Hyp][hTyr(3S-OH,4S-OH)]T[Pro(3S-OH,4S-Me)]; lactam 1-C)

>  <inhibition, %>
81.5

$$$$

Request: // lookup inhibition | system=Beta-1,3-glucan synthase (Candida albicans) | key= CCCCCOc1ccc(-c2ccc(-c3ccc(C(=O)N[C@H]4C[C@@H](O)[C@@H](O)NC(=O)[C@@H]5[C@@H](O)[C@@H](C)CN5C(=O)[C@H]([C@@H](C)O)NC(=O)[C@H]([C@H](O)[C@@H](O)c5ccc(O)cc5)NC(=O)[C@@H]5C[C@@H](O)CN5C(=O)[C@H]([C@@H](C)O)NC4=O)cc3)cc2)cc1 [ANIDULAFUNGIN] ({pTerphenylCO(4''-OnC5H11)}-[Orn(4R-OH,5R-OH)]T[Hyp][hTyr(3S-OH,4S-OH)]T[Pro(3S-OH,4S-Me)]; lactam 1-C)
Result: 75
